Origin of measurements: PubChem BioAssay

# PROTOCOL DETAILS: binders of probe aFST on microarray, primary screen, stem cell growth factor project, biochemical, small-molecule microarray, fluorescence 635/667 (AID 1086);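 note: score merges 667 nm fluorescence with signal-to-noise of each printed compound spot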
# ASSAY SETUP: higher = more signal
Decision: composite z-score >= 0.3 yields TRUE, all other cases yield FALSE.

Some entries whose results are on file:
>>> qualitative_label("O=C1C=C[C@@H](O)[C@@H]2[C@@H]3C(=O)N(c4ccc(F)cc4F)C(=O)[C@@H]3CC[C@@H]12")
"FALSE"
>>> qualitative_label("COc1ccc(COC(=O)NN=C2C[C@@H](O)[C@@H](O)[C@@H]3[C@@H]4C(=O)N(Cc5ccccc5)C(=O)[C@@H]4CC[C@H]23)cc1")
"TRUE"
>>> qualitative_label("C#CCCCON=C1[C@H]2CCn3c(=O)n(-c4ccccc4)c(=O)n3[C@H]2[C@H](O)[C@@H]2O[C@H]12")
"FALSE"

Continue with the next molecule.
Task: Test whether the molecule CO[C@@H]1COC(=O)[C@@H]2CCCN2C(=O)[C@@H](C)COC(=O)CC=C[C@H]1C records composite z-score of 0.3 or higher.
Result: FALSE

----------
# PROTOCOL DETAILS: Plasmodium falciparum growth inhibition, primary screen, strain 3D7, DAPI fluorescence, 100 nL (AID 1184);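 note: parasites grown inside human red blood cells in medium with human serum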
# ASSAY SETUP: P. falciparum 3D7 growth, 3 d, higher = more signal
Decision: z-score >= -0.5 yields Met, all other cases yield Not met.

Task: Test whether the molecule CCOC(=O)[C@H](Cc1ccccc1)NC(=O)CCC1CC(OC(=O)NCCc2ccc(F)cc2)CC2(CCCC(COC(=O)NCc3ccccc3)O2)O1 (stereo not given in full) records z-score of -0.5 or higher.
Result: Not met

Task: Further, for CC(C)CON=C1C[C@@H](O)[C@@H](O)[C@@H]2[C@@H]3C(=O)N(c4cccc(Oc5ccccc5)c4)C(=O)[C@@H]3CC[C@@H]12 ?
Result: Met

Task: Further, for CO[C@H](C1CCCCC1)[C@H](C)C=CCC(=O)OCCCc1ccccc1 ?
Result: Met

Task: Further, for Cn1c(=O)n2n(c1=O)[C@H]1[C@H](O)[C@@H]3O[C@@H]3C(=O)[C@H]1CC2 ?
Result: Met

Task: Further, for CON=C[C@@H](C)[C@H](OCc1ccccc1)C(C)C ?
Result: Not met

----------
# PROTOCOL DETAILS: E. coli DRC41 culture turbidity changes, primary screen, E. coli filamentation inducer project, strain DRC41, OD650, 48 h (AID 1152);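 note: E. coli MC1000 strain DRC41 lacking acrAB efflux pump and sulA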
# ASSAY SETUP: E. coli DRC41 (acrAB sulA), higher = more signal, called active from +8 up or from −8 down
Decision: z-score >= 0.4 yields met, all other cases yield not met.

Task: Test whether the compound CCOC(=O)[C@H](CC(C)C)NC(=O)CCC1CC(OC(=O)NCCc2ccc(F)cc2)CC2(CCCC(COC(=O)NCC(c3ccccc3)c3ccccc3)O2)O1 (stereo not given in full) records z-score of 0.4 or higher.
Result: not met

----------
Examples of molecules with documented z-score follow.
# PROTOCOL DETAILS: HepG2 liver cancer cell viability effects, profiling panel, resazurin fluorescence, 24 h, PK04 Diversity Set (AID 1172); note: test concentration not given here
# ASSAY SETUP: higher = more signal
Form field (numeric): enter value without unit.

>>> measured_number("C#CCCCON=C1[C@H]2CCn3c(=O)n(-c4ccccc4)c(=O)n3[C@H]2[C@H](O)[C@@H]2O[C@H]12")
-0.775
>>> measured_number("C[C@H]1COC(=O)[C@@H]2CCCN2C(=O)[C@@H](C)COC(=O)[C@H](Cc2ccccc2)NC1=O")
0.409
>>> measured_number("CO[C@@H]1C=CCC(=O)N2CCC[C@H]2C(=O)OC[C@@H](C)C(=O)OC[C@H]1C")
1.12

Task: # query: z-score of entry CCCNC(=O)OC[C@H]1O[C@H](CCON=Cc2ccc(C(=O)N3[C@H](c4ccc(C)cc4)[C@@H](C)CC[C@H]3C(=O)OC)cc2)C=C[C@@H]1Oc1ccc(OC)cc1
Result: -0.73

Task: Further, for CCOC(=O)[C@H](CC(C)C)NC(=O)CCC1CC(OC(=O)NCc2cccc3ccccc23)CC2(CCCC(COC(=O)NCCC(C)C)O2)O1 (some centres not stated) ?
Result: 0.232

Task: Further, for Cc1ccc(S(=O)(=O)n2c3ccccc3c3nnc(C(=O)c4ccccc4)nc32)cc1 ?
Result: -0.148

Task: Further, for CC(C)CON=C1C[C@@H](O)[C@@H](O)[C@@H]2[C@@H]3C(=O)N(C(C)(C)C)C(=O)[C@@H]3CC[C@H]12 ?
Result: -0.184

----------
Examples of molecules with documented composite z-score follow.
# PROTOCOL DETAILS: small-molecule microarray binders of probe aLefty2, primary screen, biochemical, biotinylated probe, 635/667 nm fluorescence (AID 1094);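 note: score merges spot fluorescence near 667 nm with spot signal-to-noise ratio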
# ASSAY SETUP: higher = more signal
Form field (numeric): enter value without unit.

Task: # query: composite z-score of entry CCOC(=O)C1=NO[C@@]2(C=C(Br)C3(OCCCO3)[C@H]3O[C@H]32)C1
Result: 0.105

Task: Further, for CC(C)CON=C1C[C@@H](O)[C@@H](O)[C@@H]2[C@@H]3C(=O)N(c4ccc(F)cc4F)C(=O)[C@@H]3CC[C@H]12 ?
Result: -0.304

Task: Further, for COC(=O)[C@@H]1CC[C@H](C)[C@@H](c2ccc(C)cc2)N1C(=O)c1ccc(C=NO[C@H](C)c2cn([C@@H]3COC[C@H]3O)nn2)cc1 ?
Result: -0.138

Task: Further, for CC(CCN1CCCc2nc(C)c(C)cc21)=NOC(C)CN1CCCCc2nc(C)c(C)cc21 (stereo not given) ?
Result: 0.0012

Task: Further, for COC(=O)[C@@H]1CC[C@@H](C)[C@H](c2ccc(Br)cc2)N1 ?
Result: -0.0943

Task: Further, for C=CC[C@@H]1C=C[C@H](ON=C(C)CCN2CCc3nc(-c4ccccc4)c(-c4ccccc4)cc3C2)[C@@H](CO)O1 ?
Result: -0.152

Task: Further, for CC(CCN1CCCCc2nc(C)c(C)cc21)=NO[C@H](C)c1cn([C@H](CO)Cc2ccccc2)nn1 ?
Result: 0.0345

Task: Further, for CCOC(=O)[C@H](CC(C)C)NC(=O)CCC1CC(OC(=O)NCCc2ccc(F)cc2)CC2(CCCC(COC(=O)NCC3CCCCC3)O2)O1 (stereo not given in full) ?
Result: -0.231

Task: Further, for CO[C@@H]1COC(=O)[C@@H](C)COC(=O)[C@@H](C)NC(=O)CC=C[C@@H]1C ?
Result: -0.154

Task: Further, for CCOC(=O)NN=C1C[C@@H](O)[C@@H](O)[C@@H]2[C@@H]3C(=O)N(c4cccc(Oc5ccccc5)c4)C(=O)[C@@H]3CC[C@H]12 ?
Result: -0.175

Task: Further, for COC(=O)CC=C[C@@H](C)[C@@H](C=NO[C@H](C)c1cn([C@H](CO)Cc2ccccc2)nn1)NS(=O)(=O)c1ccc(C)cc1 ?
Result: -0.0407

Task: Further, for CO[C@H]1COC(=O)[C@@H](C)COC(=O)[C@H](C)NC(=O)CC=C[C@H]1C ?
Result: -0.212

----------
# TARGET: Neurogenic locus notch homolog protein 2 (Homo sapiens)
# PROTOCOL DETAILS: Notch2 binders on small-molecule microarrays, primary screen, biochemical, small-molecule microarray, 635 nm fluorescence, stem cell growth factors (AID 1073)
# ASSAY SETUP: Notch2 binding, higher = more signal
Please map values of composite z-score to classes as shown: class 1 (below -0.09), class 2 (-0.09 to below 0.7), class 3 (0.7 or more)

Task: Band of COCOc1ccc(Br)cc1C(=O)[C@@H]1O[C@H]1c1cccc(OC)c1 ?
Result: class 2

Task: Further, for CON=C[C@@H](C)[C@H](OCc1ccccc1)C(C)C ?
Result: class 1

Task: Further, for O=C1CCCC=C1C(O)CCCCBr (stereo not given) ?
Result: class 3

Task: Further, for COC(=O)[C@H](C)NC(=O)CCC1CC(OC(=O)NCc2cccc3ccccc23)CC2(CCCC(COC(=O)NCC(c3ccccc3)c3ccccc3)O2)O1 (stereo not given in full) ?
Result: class 3

Task: Further, for COc1ccc(O[C@H]2C=C[C@@H](c3ccccc3)O[C@@H]2CON=C(C)CCC(=O)OC[C@H]2O[C@H](c3ccccc3)C=C[C@@H]2Oc2ccc(OC)cc2)cc1 ?
Result: class 1

Task: Further, for Cc1ccc(S(=O)(=O)NC(CCc2ccccc2)CC(=O)C(C)(C)C)cc1 (stereo not given) ?
Result: class 3

----------
# PROTOCOL DETAILS: small-molecule microarray binders of probe aLefty2, primary screen, biochemical, biotinylated probe, 635/667 nm fluorescence (AID 1094);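 note: score merges spot fluorescence near 667 nm with spot signal-to-noise ratio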
# ASSAY SETUP: higher = more signal
Examples of compounds with documented composite z-score follow.
Form field (numeric): enter value without unit.

>>> measured_number("COC(=O)CC=C[C@@H](C)[C@@H](C=NO[C@H](C)c1cn([C@@H]2COC[C@H]2O)nn1)NS(=O)(=O)c1ccc(C)cc1")
0.0428
>>> measured_number("O=C1C2=CC[C@H]3C(=O)N(c4cccc(Oc5ccccc5)c4)C(=O)[C@H]3[C@H]2[C@H](O)[C@@H]2O[C@H]12")
-0.139
>>> measured_number("CCOC(=O)NN=C1C[C@@H](O)[C@@H](O)[C@@H]2[C@@H]3C(=O)N(Cc4ccccc4)C(=O)[C@@H]3CC[C@H]12")
-0.138

Shifting focus to the compound that follows.
Task: # query: composite z-score of entry C[C@H]1COC(=O)[C@@H]2CCCN2C(=O)[C@@H](C)COC(=O)[C@H](Cc2ccccc2)NC1=O
Result: -0.141
